assay: NOD1 signaling inhibitors, primary screen, cell-based, luminescence, uHTS (AID 1578); details: NOD1-driven NF-kB luciferase reporter cells, at 4 µM;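 also: HEK-293T reporter cells stimulated with the NOD1 agonist gamma-tri-DAP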
Screen size: about 290,000 compounds; about 3,000 (1%) were called active. Rule as the data show it: active = inhibition mostly above about 36% (no sharp cut-off); inactive = mostly below about 34%. For the sample, actives were picked, then their nearest neighbours and some compounds at random.
Possible outcomes: active, inactive

{"columns": ["Structure string", "Category"],
 "data": [
  ["Cc1ccc(S(=O)(=O)Nc2cccc(C(=O)Nc3cc(C)ccn3)c2)cc1", "inactive"],
  ["CC(=O)c1cccc(NC(=O)N2CCCCCC2)c1", "inactive"],
  ["CS(=O)(=O)c1ccc2nc(NC(=O)c3cccc(Cl)c3)sc2c1", "inactive"],
  ["CC(=O)c1cccc(NC(=O)c2ccc(C(=O)Nc3cccc(C(C)=O)c3)nc2)c1", "inactive"],
  ["Cc1cccc(NC(=O)c2ccc(C(=O)Nc3cccc(C)c3)nc2)c1", "active"],
  ["Cc1cccc(NS(=O)(=O)c2cccc(C(=O)Nc3cccc(C(=O)O)c3)c2)c1", "inactive"]
]}

====

test: NOD1 signaling inhibitors, primary screen, cell-based, luminescence, uHTS (AID 1578); settings: NOD1-driven NF-kB luciferase reporter cells, at 4 µM, active compounds read high;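 also: HEK-293T reporter cells stimulated with the NOD1 agonist gamma-tri-DAP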
Out of some 290,000 compounds screened, about 3,000 (1%) were called active. What follows is part of a selection rich in actives, with near analogues and random picks from the rest.

{"columns": ["Compound", "inhibition / %"],
 "data": [
  ["O=C1NC(=S)N/C1=C\\c1cccnc1", 33.9],
  ["O=C(CN1C2=NCCN2c2ccccc21)c1ccc(Br)cc1", 6.8],
  ["O=C(CCCCl)Nc1c2c(nn1-c1ccccc1)CSC2", -34.6],
  ["Cc1oc2c(c(=O)c1C)C(=O)CC(c1ccccc1)C2 (configuration not stated)", -15.6],
  ["O=C(c1cccs1)c1no[n+]([O-])c1C(=O)c1cccs1", 98.1],
  ["CCC(=O)Nc1c2c(nn1-c1ccc(OC)cc1)CSC2", -5.8],
  ["O=C1NC(=S)N/C1=C/c1cccnc1", 16.2],
  ["O=C(CCc1nnc(CCCCc2ccccc2)o1)NCCn1cccn1", -24.1],
  ["N#Cc1ccccc1NC(=O)CSc1nnc(-c2ccncc2)o1", 4.5],
  ["CCCCOC(=O)C1C2C=C[C@]3(CN(C(C)c4ccc(OC)cc4)C(=O)[C@H]13)O2 (some centres not stated)", 11.8],
  ["Cc1cc(/C=C2\\NC(=S)NC2=O)c(C)n1-c1cccnc1", -14.7],
  ["CS(=O)(=O)c1sc(C#N)c2c1C(=O)CC(c1ccccc1)C2 (configuration not stated)", 43.9]
]}

====

experiment: NOD1 signaling inhibitors, primary screen, cell-based, luminescence, uHTS (AID 1578); conditions: NOD1-driven NF-kB luciferase reporter cells, at 4 µM;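 also: HEK-293T reporter cells stimulated with the NOD1 agonist gamma-tri-DAP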
The campaign covered roughly 290,000 compounds. About 3,000 (1%) were called active. Rule as the data show it: active = inhibition mostly above about 36% (no sharp cut-off); inactive = mostly below about 34%. This is one part of a sample in which actives are shown more often than they occur.
Classes used: y = active, n = inactive

{"columns": ["Compound", "Category"],
 "data": [
  ["COCCCNC(=S)N1CCN(S(C)(=O)=O)CC1", "n"],
  ["CC1CCc2c(sc3ncnc(N4CCOCC4)c23)C1 (configuration not stated)", "n"],
  ["N#Cc1ccc(-c2nc3cc(C#N)c(C#N)cc3nc2-c2ccccc2)cc1C#N", "y"],
  ["O=C(Nc1ccc(N2CCOCC2)cc1)c1cnccn1", "y"],
  ["N#CC1=C(N)Oc2ccc3ccc(O)cc3c2C1c1cccnc1 (configuration not stated)", "n"],
  ["CCOC(=O)c1c(CSc2ccccc2)oc2ccc(O)cc12", "y"],
  ["Cc1nn(-c2nc3ccccc3[nH]2)c(=O)c2ccccc12", "y"],
  ["Cc1cc(CNC(=O)c2ccc(C)c([N+](=O)[O-])c2)c2ccccc2n1", "n"],
  ["COc1ccc(OC)c(NC(=O)NNC(=O)CCCOc2ccc(Cl)cc2C)c1", "n"],
  ["CCc1ccc(CNC(=O)CCS(=O)(=O)Cc2ccccc2F)cc1", "n"],
  ["CCOC(=O)c1c(CN2CCOCC2)n(-c2ccccc2)c2cc(Br)c(OC)cc12", "n"],
  ["COc1ccc(-c2nc3ccccc3s2)cc1", "n"],
  ["Cc1csc(NC(=O)c2cc3c(s2)CCC3)n1", "n"],
  ["O=C(COC(=O)c1sc2cc(Cl)ccc2c1Cl)Nc1ncc(Cl)cc1Cl", "n"],
  ["COc1ccc(CCC(=O)NC(C)C)cc1", "n"],
  ["Cc1cc(CNC(=O)Cn2cc([N+](=O)[O-])cn2)c2ccccc2n1", "n"],
  ["O=C(c1cc2cc(Cl)ccc2o1)N1CCCC1", "n"],
  ["CCOc1ccc(S(=O)(=O)Nc2cc(F)ccc2F)c2cccnc12", "n"],
  ["CC1/C(=N/O)CC(c2ccco2)NC1c1ccco1 (configuration not stated)", "n"],
  ["O=C(CCl)Nc1ccc(N2CCCCCC2)cc1", "y"],
  ["Cc1cnc(C(=O)Nc2ccc(N3CCOCC3)cc2)cn1", "n"],
  ["O=C(Nc1ccc(N2CCCCC2)cc1)c1cccnc1Cl", "n"],
  ["O=C(CN1CCCCC1)Nc1ccc(N2CCCCCC2)cc1", "n"],
  ["COCC(=O)N(Cc1cc2cc(OC)ccc2[nH]c1=O)c1ccc(C)cc1", "n"],
  ["CCOc1ccc(-n2c(-c3ccccc3)nnc2-c2ccccc2)cc1", "n"],
  ["CC(C)C(=O)N1CCC2(CC1)Oc1ccc(Cl)cc1C(=O)C21CC(c2ccc(Cl)cc2)=NO1 (configuration not stated)", "n"],
  ["O=C(CCn1nnc2ccccc21)N1CCN(c2ccccc2)CC1", "n"],
  ["Cc1sc2ncn(CC(=O)NCCCC(=O)N3CCCCC3)c(=O)c2c1C", "n"],
  ["O=c1c2ccccc2cnn1-c1ccc(Cl)cc1", "n"],
  ["Oc1[nH]c2ccc(Br)cc2c1N=NC(=S)Nc1ccc(F)cc1", "n"],
  ["Cc1csc(NC(=O)c2cc3c(s2)CCCC3)n1", "n"],
  ["CCOC(=O)CCCCCN(Cc1ccccc1)S(=O)(=O)c1ccc([N+](=O)[O-])cc1", "n"],
  ["Oc1[nH]c2ccc(Br)cc2c1N=NC(=S)N1CCOCC1", "y"],
  ["COc1cc2c(c(O)c1OC)-c1c(cc(OC)c(OC)c1OC)C[C@@H](C)[C@@H](C)C2", "n"],
  ["COc1ccccc1S(=O)(=O)c1ccccc1[N+](=O)[O-]", "n"],
  ["COc1nc(OC)nc(Oc2ccc(Cl)cc2[N+](=O)[O-])n1", "n"],
  ["N#CCSc1nc2ccccc2c(=O)n1CCC(=O)NCCc1ccccc1", "n"],
  ["COc1ccc([N+](=O)[O-])c(S(=O)(=O)c2ccccc2)n1", "y"],
  ["O=C(Nc1ccc(N2CCCCC2)cc1)c1ccccn1", "y"],
  ["CCOc1cccc(-c2cc(C(=O)Nc3ccon3)c3ccccc3n2)c1", "n"],
  ["CN(C)C(CNC(=O)/C=C/c1cccc(Cl)c1)c1ccccc1 (configuration not stated)", "n"],
  ["CC(=O)N1c2ccc(S(=O)(=O)N3CCC(C(=O)Nc4ccccn4)CC3)cc2CC1C (configuration not stated)", "n"],
  ["Cc1cc(CNC(=O)c2cccc([N+](=O)[O-])c2)c2ccccc2n1", "y"],
  ["CC1(C)CC(=O)C(Sc2ccc(Br)cc2)=C(O)C1", "n"],
  ["Cn1cnc([N+](=O)[O-])c1S(=O)(=O)c1ccc(Cl)cc1", "n"],
  ["CCNC(=O)COC(=O)c1cc(-c2ccccc2)nn1-c1ccccc1", "n"],
  ["COc1ccc(OCCOc2ccccc2[N+](=O)[O-])cc1", "n"]
]}
